B1: ZNF263 (parent)
chain: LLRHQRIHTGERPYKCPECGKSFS

variants of: B1; assay: protein stability index of a GFP-peptide fusion (GPS, HEK-293T) (PSI 1-6); higher = more stable; settings: c terminus: a fixed tail appended;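 note: lentivirally expressed fusions sorted by FACS into six bins by GFP to DsRed ratio, PSI derived from sequencing read proportions per bin multiplied by bin number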
met means recorded protein stability index is 2 or above; not met means it is below 2.

The examples below pair each entry with its known result.
>  <biosequence>
LLRHQRIHTGRRPYKCPECGKSFS [E11R]

>  <label class>
met

$$$$
>  <biosequence>
LLRHQRIHTGERPYKCDECGKSFS [P17D]

>  <label class>
met

$$$$
>  <biosequence>
LLRHQRYHTGERPYKCPECGKSFS [I7Y]

>  <label class>
not met

$$$$
>  <biosequence>
LSRHQRIHTGERPYKCPECGKSFS [L2S]

>  <label class>
met

$$$$
>  <biosequence>
LLRHQRIHTGERPYKCPECGKQFS [S22Q]

>  <label class>
met

$$$$

Problem: # bool: protein stability index of LLRQQRIHTGERPYKCPECGKSFS [H4Q] >= 2
Result: met

Problem: # bool: protein stability index of LLRHQRIRTGERPYKCPECGKSFS [H8R] >= 2
Result: not met

Problem: # bool: protein stability index of LLRHQRIHTGERPYKCPECGSSFS [K21S] >= 2
Result: not met
